Recorded EC50, one value per entry.
Molecular target: T1, cynomolgus PD-1 expressed on CHO-K1 cells (cynomolgus monkey, UniProt B0LAJ3 25-288)
T1 construct: also called CHO-K1/cynoPD-1; CHO-K1-cynoPD-1
T1 sequence (B0LAJ3 entry or part of it limits assumed): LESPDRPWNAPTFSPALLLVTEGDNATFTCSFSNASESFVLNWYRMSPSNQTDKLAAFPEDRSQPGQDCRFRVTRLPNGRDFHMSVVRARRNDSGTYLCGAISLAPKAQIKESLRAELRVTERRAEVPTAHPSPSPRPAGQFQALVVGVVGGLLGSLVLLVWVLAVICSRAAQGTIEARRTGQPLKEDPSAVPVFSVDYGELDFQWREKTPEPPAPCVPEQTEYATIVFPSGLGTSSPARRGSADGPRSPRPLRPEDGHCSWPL
Assay: FACS, CHO-K1/cynoPD-1 cells
Form entry: value (pM) — number only.

Guide cases for EC50, answers given:
{"binder": "mAb715 (antibody, V domains shown, murine hybridoma anti-PD-1 mAb) VH: EVMLVESGGGLLKPGGSLKLSCAASGFTFSSYAMSWVRQTPEKRLEWVATISGGGRDTYYPDSVKGRFTISRDNAKNTLYLQMTSLRSEDTAFYYCAGQGGTYLFASWGQGTLVTVSA VL: DIVMTQSHKFMSTSVGDSVTITCKASQDVNTAVAWYQQKPGQPPKVLIYWASTRHTGVPDRFTGSGSGTDYTLTISSVQAEDLALYYCQQHYTTPYTFGGGTKLEIK", "value_observed": 900}
{"binder": "mAb713 (antibody, V domains shown, murine hybridoma anti-PD-1 mAb) VH: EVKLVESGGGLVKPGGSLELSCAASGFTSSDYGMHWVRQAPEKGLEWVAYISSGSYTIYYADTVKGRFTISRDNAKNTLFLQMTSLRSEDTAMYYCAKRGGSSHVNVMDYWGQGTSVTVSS VL: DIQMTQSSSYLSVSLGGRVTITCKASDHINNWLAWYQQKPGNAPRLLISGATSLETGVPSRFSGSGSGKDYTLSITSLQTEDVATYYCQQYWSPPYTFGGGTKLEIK", "value_observed": 900}
{"binder": "mAb703 (antibody, V domains shown, murine hybridoma anti-PD-1 mAb) VH: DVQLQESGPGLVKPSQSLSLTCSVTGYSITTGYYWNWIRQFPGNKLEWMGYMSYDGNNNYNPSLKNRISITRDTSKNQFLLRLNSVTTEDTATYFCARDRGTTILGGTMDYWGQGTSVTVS VL: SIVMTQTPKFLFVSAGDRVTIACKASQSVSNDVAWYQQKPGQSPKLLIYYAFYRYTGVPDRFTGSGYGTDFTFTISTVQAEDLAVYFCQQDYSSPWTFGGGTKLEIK", "value_observed": 700}

### Prompt So what's the measured EC50 for this one? mAb714 (antibody, V domains shown, murine hybridoma anti-PD-1 mAb) VH: EVHLQQSGPELVKPGASVKIFCKASGYTFTDNNVEWVKQSHGKSLEWIGDINPNNGDTLYSQYFKDKATLTVDKSSTTAYMELRSLTSEDTGLYYCARGKSDQFDYWGQGTTLTVSS VL: DIQMTQSPASQSASLGESVTITCLASQTIGTWLAWYQQKPGKSPQLLIYAATSLADGVPSRFSGSGSGTKFSFKISSLQGEDFVSYYCQQLYSSPWTFGGGTKLEIK
### Response 800

### Prompt Cool, now mAb718 (antibody, V domains shown, murine hybridoma anti-PD-1 mAb) VH: QVQLQQSGAELVRPGASVTLSCKASGYTFTDYEMHWAKQTPVHGLEWIGVIEPESGGTVYNQKFKGKAKLTADKSSRTAYMELRSLTSEDSAVYYCTREGFNSDHYFDYWGQGTTLTVSS VL: DVLMTQTPLSLPVSLGDQASISCRSSQNIVHSNGNTYLEWYLQKPGQSPKLLIYKVFNRFSGVPDRFSGSGSGTDFTLKISRVEAEDLGVYYCFQGSHVPYTFGGGTKLEIK
### Response 4200
